target_desc: Env of HIV-1 strain 251-18 (HIV-1)
assay_overview: cell-based or functional assay
observation_type: neutralization IC50 (µg/mL)
Reply with just the number (in µg/mL).

QUERY: May I ask what neutralization IC50 has been recorded for γ46κ61 (antibody, V domains shown) VH: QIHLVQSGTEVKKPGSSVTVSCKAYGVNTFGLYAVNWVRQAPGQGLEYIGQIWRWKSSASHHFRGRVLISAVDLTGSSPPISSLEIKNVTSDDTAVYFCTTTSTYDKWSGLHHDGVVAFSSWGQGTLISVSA VL: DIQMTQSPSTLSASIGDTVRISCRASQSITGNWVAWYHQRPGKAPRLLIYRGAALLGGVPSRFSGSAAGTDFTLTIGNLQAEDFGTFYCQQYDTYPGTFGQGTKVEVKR ?
RESULT: 1.84

QUERY: Try this binder next: γ15κ61 (antibody, V domains shown) VH: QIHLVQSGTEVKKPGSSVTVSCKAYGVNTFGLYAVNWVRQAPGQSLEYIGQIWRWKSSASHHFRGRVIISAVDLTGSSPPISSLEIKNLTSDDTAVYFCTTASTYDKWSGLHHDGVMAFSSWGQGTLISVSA VL: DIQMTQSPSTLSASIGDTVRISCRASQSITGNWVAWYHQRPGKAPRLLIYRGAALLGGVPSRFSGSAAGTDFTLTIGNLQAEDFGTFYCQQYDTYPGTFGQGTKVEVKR
RESULT: 4.66
